Observed IC50 for proMMP13(1-268) activation by plasmin (Homo sapiens), reported per entry below.
Unit µM implied. Number only.

CCn1cnc2ccc3sc(Nc4cc(C(N)=O)ccc4OC(C)C)nc3c21 = 1.1

Now for another entry.
API: value(readout= IC50, system= proMMP13(1-268) activation by plasmin (Homo sapiens), query= CC(C)Oc1ccc(C(N)=O)cc1Nc1nc2c(ccc3c2cnn3C)s1 ) 4.5

----------
# system_tested: full-length proMMP9(1-707) activation by catalytic MMP3 (Homo sapiens, UniProt P14780, R574P)
# Construct: MMP3: E. coli
# assay_details: proMMP9/MMP3 P126 Activation Assay
Mark Met for IC50 under 400 nM, Not met if at or over.

Recorded results for 2 compounds are shown here.
COc1c(Nc2nc3c(ccc4c3ncn4C)s2)cc(C(N)=O)cc1C(F)(F)F [Example 53] = Not met
CC(C)Oc1ccccc1Nc1nc2c(ccc3nc(N)sc32)s1 [Example 9] = Not met

Could you please tell me whether IC50 recorded for Cc1nc2ccc3sc(Nc4cc(S(C)(=O)=O)ccc4OC(C)C)nc3c2n1C [Example 144] is less than 400 nM? Met

Could you please tell me whether IC50 recorded for COc1ccncc1Nc1nc2c(ccc3ncn(CC(F)(F)F)c32)s1 [Example 153] is less than 400 nM? Not met

Could you please tell me whether IC50 recorded for CC(C)Oc1ccc(C(N)=O)cc1Nc1nc2c(ccc3[nH]c(N)nc32)s1 [Example 11] is less than 400 nM? Met

Could you please tell me whether IC50 recorded for CC(C)Oc1ccc(C(N)=O)cc1Nc1nc2c(ccc3ncccc32)s1 [Example 91] is less than 400 nM? Not met

Could you please tell me whether IC50 recorded for COc1ccc(C(N)=O)cc1Nc1nc2c(ccc3cnccc32)s1 [Example 96] is less than 400 nM? Not met

Could you please tell me whether IC50 recorded for COC(=O)c1ccc(OC)c(Nc2nc3c(ccc4c3ncn4C)s2)c1 [Example 61] is less than 400 nM? Not met

Could you please tell me whether IC50 recorded for COc1ccc(C(N)=O)cc1Nc1nc2c(s1)CCc1ncccc1-2 [Example 117] is less than 400 nM? Not met

----------
# system_tested: proMMP9(67-444;ΔFnII) (SEQ ID NO:5) (Homo sapiens, UniProt P14780, DEL216-390)
# Construct: start methionine (N)
# Sequence (P14780 with tags, fused parts or gaps DEL216-390): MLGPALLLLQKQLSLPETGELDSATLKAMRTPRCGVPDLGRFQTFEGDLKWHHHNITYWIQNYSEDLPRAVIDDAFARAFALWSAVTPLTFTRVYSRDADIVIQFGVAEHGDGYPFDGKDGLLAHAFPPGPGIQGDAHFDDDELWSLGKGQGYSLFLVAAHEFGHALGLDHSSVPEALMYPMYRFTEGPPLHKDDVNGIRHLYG
# assay_details: ThermoFluor binding assay with proMMP9(67-444;ΔFnII)
Mark 1 (yes) for Kd under 0.6 µM, 0 (no) if at or over.

COc1ccc(F)cc1Nc1nc2c(ccc3cnccc32)s1 [Example 99] = 0 (no)
CC(=O)Nc1nc2c(ccc3sc(Nc4cc(C(N)=O)ccc4OC(C)C)nc32)[nH]1 [Example 18] = 1 (yes)
COc1ccc(Cl)cc1Nc1nc2c(ccc3c2ncn3C)s1 [Example 40] = 1 (yes)

Could you please tell me whether Kd recorded for COc1ccc(C)cc1Nc1nc2c(ccc3c2ncn3C)s1 [Example 41] is less than 0.6 µM? 0 (no)

Could you please tell me whether Kd recorded for CCOP(=O)(OCC)c1ccc(OC)c(Nc2nc3c(ccc4c3ncn4C)s2)c1 [Example 66] is less than 0.6 µM? 0 (no)

Could you please tell me whether Kd recorded for Cc1nc2ccc3sc(Nc4ccccc4OC(C)C)nc3c2s1 [Example 17] is less than 0.6 µM? 0 (no)

Could you please tell me whether Kd recorded for COc1ccc(S(C)(=O)=O)cc1Nc1nc2c(ccc3c2cnn3CCC(C)C)s1 [Example 109] is less than 0.6 µM? 0 (no)

Could you please tell me whether Kd recorded for CC(C)Oc1ccccc1Nc1nc2c(ccc3nc(N)sc32)s1 [Example 9] is less than 0.6 µM? 0 (no)

Could you please tell me whether Kd recorded for Cn1cnc2c3nc(Nc4cc(C#N)ccc4OC(F)(F)F)sc3ccc21 [Example 164] is less than 0.6 µM? 1 (yes)

----------
# system_tested: proMMP9(67-444;ΔFnII) (SEQ ID NO:5) (Homo sapiens, UniProt P14780, DEL216-390)
# Construct: start methionine (N)
# assay_details: ThermoFluor binding assay with proMMP9(67-444;ΔFnII)
Mark class 1 for Kd under 400 nM, class 0 if at or over.

Recorded results for 5 compounds are shown here.
COc1ccc(Cl)cc1Nc1nc2c(ccc3nc(N)sc32)s1 = class 1
CCS(=O)(=O)c1ccc(OC)c(Nc2nc3c(ccc4c3ncn4C)s2)c1 = class 0
COc1ccc(C#N)cc1Nc1nc2c(ccc3c2ccn3C)s1 = class 1
COc1ccc(OC)c(Nc2nc3c(ccc4nc(N)sc43)s2)c1 = class 0
COc1ccc(P(=O)(O)O)cc1Nc1nc2c(ccc3c2ncn3C)s1 = class 0

Could you please tell me whether Kd recorded for CCn1c(C)nc2ccc3sc(Nc4cc(S(C)(=O)=O)ccc4OC(C)C)nc3c21 is less than 400 nM? class 1

Could you please tell me whether Kd recorded for CC(C)Oc1ccc(C(N)=O)cc1Nc1nc2c(ccc3c2ncn3C)s1 is less than 400 nM? class 1

Could you please tell me whether Kd recorded for CC(C)Oc1ccc(F)cc1Nc1nc2c(ccc3ncn(CC(F)(F)F)c32)s1 is less than 400 nM? class 0

----------
# system_tested: proMMP9(20-445;ΔFnII) (SEQ ID NO:6) (Homo sapiens, UniProt P14780, DEL216-390)
# Construct: start methionine (N)
# assay_details: ThermoFluor binding assay with proMMP9(20-445;ΔFnII)
pKd: −log10 of the molar value.
Use 6 as the dividing line for pKd, with the line itself on the 1.0 side and lower values as 0.0.

CCn1c(C)nc2ccc3sc(Nc4ccccc4OC)nc3c21 = 0.0
CC(C)Oc1ccc(C(N)=O)cc1Nc1nc2c(ccc3[nH]c(Cl)nc32)s1 = 1.0

Entry CC(C)Oc1ccccc1Nc1nc2c(ccc3nc(N)sc32)s1 : is its pKd no less than 6? 0.0

----------
# system_tested: proMMP9(67-444;ΔFnII) (SEQ ID NO:5) (Homo sapiens, UniProt P14780, DEL216-390)
# Construct: start methionine (N)
# Sequence (P14780 with tags, fused parts or gaps DEL216-390): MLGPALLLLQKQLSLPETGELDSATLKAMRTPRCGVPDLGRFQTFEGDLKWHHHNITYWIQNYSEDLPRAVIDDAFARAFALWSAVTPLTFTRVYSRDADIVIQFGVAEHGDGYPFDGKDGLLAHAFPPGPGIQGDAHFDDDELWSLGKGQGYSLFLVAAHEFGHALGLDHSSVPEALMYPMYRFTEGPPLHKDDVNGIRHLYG
# assay_details: ThermoFluor binding assay with proMMP9(67-444;ΔFnII)
Listed here: items and their measured Kd.
Unit nM implied. Number only.

API: value(readout= Kd, system= proMMP9(67-444;ΔFnII) (SEQ ID NO:5) (Homo sapiens, UniProt P14780, DEL216-390), query= CC(C)Oc1ccc(C(N)=O)cc1Nc1nc2c(ccc3[nH]c(Cl)nc32)s1 ) 200

----------
# system_tested: proMMP13(1-268) (SEQ ID NO:7) (Homo sapiens, UniProt P45452)
# Construct: 6xHis (C); made in house; host or cells: HEK293 (transient, secreted)
# assay_details: ThermoFluor binding assay with proMMP13(1-268)
measured_property: log10(Kd) (log10 of the value in µM)
Note: values are log10 of Kd expressed in µM.

Completed entries (count: 2):
COc1cc(C)c(C(N)=O)cc1Nc1nc2c(ccc3c2ncn3C)s1 [Example 56] = 0.99
CC(C)Oc1ccccc1Nc1nc2c(ccc3nc(N)sc32)s1 [Example 9] = 1.26

Look at this compound and give its reported log10(Kd). COc1ccc(OC)c(Nc2nc3c(ccc4c3ncn4C)s2)c1 [Example 42] 0.53

Look at this compound and give its reported log10(Kd). COc1ccccc1Nc1nc2c(ccc3sc(N)nc32)s1 [Example 1] 0.85

Look at this compound and give its reported log10(Kd). COc1ccccc1Nc1nc2c(ccc3[nH]c(N)nc32)s1 [Example 6] 1.04

Look at this compound and give its reported log10(Kd). CCc1ccccc1Nc1nc2c(ccc3c2ncn3C)s1 [Example 62] 1.71

----------
# system_tested: proMMP9 processing to active MMP9 in HFL-1 cells (Homo sapiens)
# assay_details: Activation of proMMP9 by human fetal lung fibroblast (HFL-1) cultures (Western blot)
# reported_conditions: HFL-1 cultures, pAb-1246; read-out: IC50 for inhibition of processing of proMMP9 to active MMP9
measured_property: IC50

Look at this compound and give its reported IC50. Cc1nc(C)c(-c2csc(Nc3cc(S(N)(=O)=O)ccc3OC(C)C)n2)s1 ~300 nM
